Measured values drawn from paper PMC3218832 for this set.

For each of the sequences below, state its binding signal.
Target: p50p50 homodimer (Homo sapiens, UniProt P19838 7-356)
Sequence (P19838 7-356): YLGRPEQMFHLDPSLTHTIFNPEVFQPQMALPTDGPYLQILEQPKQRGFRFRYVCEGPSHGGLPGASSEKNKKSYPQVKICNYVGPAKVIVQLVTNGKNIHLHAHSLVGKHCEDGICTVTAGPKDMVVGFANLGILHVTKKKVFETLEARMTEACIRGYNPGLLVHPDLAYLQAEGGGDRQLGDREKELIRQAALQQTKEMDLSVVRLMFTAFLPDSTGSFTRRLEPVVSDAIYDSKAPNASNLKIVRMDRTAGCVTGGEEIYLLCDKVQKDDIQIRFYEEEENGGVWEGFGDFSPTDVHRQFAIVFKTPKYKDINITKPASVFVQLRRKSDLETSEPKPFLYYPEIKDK
Assay: protein binding microarray; high values mean tight binding
Details: dsDNA, one strand shown
Give the quantity in z-score, number only.

Read the entry `AAGTTATCCCC` and write its reported binding signal.
1.08

Read the entry `AAAGATGTCCC` and write its reported binding signal.
0.646

Read the entry `CGATTGACCCC` and write its reported binding signal.
-0.753

Read the entry `AGATACCCCCT` and write its reported binding signal.
1.43

Read the entry `CGAAGATCCCC` and write its reported binding signal.
0.983

Read the entry `GGGGATTCCCT` and write its reported binding signal.
1.37

Read the entry `GGAGATATCCT` and write its reported binding signal.
-1.23

Read the entry `CGAGACGTCCT` and write its reported binding signal.
-1.33

Read the entry `AGAAACGTCCT` and write its reported binding signal.
-1.17

Read the entry `GGAGTCTCCCC` and write its reported binding signal.
0.531

Read the entry `AAGAGCTTCCC` and write its reported binding signal.
-0.795

Read the entry `GGGATTCTCCC` and write its reported binding signal.
0.737

Read the entry `GAGAGATTCCC` and write its reported binding signal.
0.649

Read the entry `CAGAGCTCCCC` and write its reported binding signal.
-0.0564

Read the entry `CAATGACTCCT` and write its reported binding signal.
-1.02

Read the entry `AAGTGAACCCT` and write its reported binding signal.
-1.09

Read the entry `CGGATAATCCT` and write its reported binding signal.
-1.31

Read the entry `GGGGAGGTCCT` and write its reported binding signal.
0.328

Read the entry `CGAGTTTCCCT` and write its reported binding signal.
1.12

Read the entry `CGAAGTTCCCT` and write its reported binding signal.
0.819

Read the entry `GGAGTTTTCCT` and write its reported binding signal.
-0.38

Read the entry `AGAGGAGCCCC` and write its reported binding signal.
0.291

Read the entry `CGATAGCCCCC` and write its reported binding signal.
0.93

Read the entry `GAGTGCCCCCT` and write its reported binding signal.
1.11

Read the entry `AAAGGGTTCCT` and write its reported binding signal.
-1.23

Read the entry `AAGAACACCCC` and write its reported binding signal.
0.317

Read the entry `GGGTAACCCCT` and write its reported binding signal.
0.71

Read the entry `GGGTGCTCCCT` and write its reported binding signal.
0.136

Read the entry `CAGTTACCCCC` and write its reported binding signal.
1.11

Read the entry `CAGGGGTTCCT` and write its reported binding signal.
0.529

Read the entry `CAGTTTATCCC` and write its reported binding signal.
-0.117

Read the entry `GAGAACTTCCT` and write its reported binding signal.
-0.697

Read the entry `GAAAATATCCT` and write its reported binding signal.
-1.17

Read the entry `AAAGAGACCCT` and write its reported binding signal.
-0.515

Read the entry `CGAAGCTTCCC` and write its reported binding signal.
-0.668

Read the entry `CAGTGAGTCCC` and write its reported binding signal.
0.525

Read the entry `GGATGGCTCCT` and write its reported binding signal.
-1.51

Read the entry `AGGATTGTCCT` and write its reported binding signal.
-1.5

Read the entry `CGATATTTCCT` and write its reported binding signal.
-0.558

Read the entry `AAAGTTCTCCT` and write its reported binding signal.
-1.02

Read the entry `AGGATGTTCCC` and write its reported binding signal.
-0.225

Read the entry `CAAAAGTTCCC` and write its reported binding signal.
0.79

Read the entry `AGATGTTCCCT` and write its reported binding signal.
0.414

Read the entry `GAAGTCTTCCC` and write its reported binding signal.
-0.511

Read the entry `GAAGTTTCCCC` and write its reported binding signal.
1.35

Read the entry `GAAGTTGTCCT` and write its reported binding signal.
-1.05

Read the entry `AAAGTGCCCCC` and write its reported binding signal.
1.09

Read the entry `GAAGTGTCCCT` and write its reported binding signal.
0.834

Read the entry `CGGGAGATCCT` and write its reported binding signal.
0.247

Read the entry `AAGGACTCCCC` and write its reported binding signal.
0.758

Read the entry `CGGTTTTTCCC` and write its reported binding signal.
0.935

Read the entry `GAGTAAGCCCC` and write its reported binding signal.
0.604

Read the entry `AGGAGTGTCCC` and write its reported binding signal.
0.0859

Read the entry `GGGATCGTCCT` and write its reported binding signal.
-0.724

Read the entry `AAGGTCCTCCT` and write its reported binding signal.
-0.992

Read the entry `GAGTGTACCCC` and write its reported binding signal.
-0.176

Read the entry `CGGAACGTCCC` and write its reported binding signal.
0.116

Read the entry `CGAGGGCCCCC` and write its reported binding signal.
0.101

Read the entry `CAATTTATCCT` and write its reported binding signal.
-0.676

Read the entry `GAGTTGCCCCC` and write its reported binding signal.
1.04

Read the entry `GAGATTTTCCT` and write its reported binding signal.
-0.538

Read the entry `CGGTATCCCCC` and write its reported binding signal.
1.13
